src = PubChem BioAssay (NCI)

Assay: NCI Yeast Anticancer Drug Screen. Data for the mlh1 rad18 strain (AID 175)
Conditions: S. cerevisiae mlh1 rad18 strain growth inhibition; at 50.0 µM; stronger effect = higher value
Compounds without any hit were thinned out: in the full panel of roughly 79,000, 15% have a hit.
TEST_READOUT: growth inhibition (%)
Give bare numbers, in %.

Tell me growth inhibition reported for O=[As](O)(O)c1cc(N=Nc2ccc(-c3ccc(N=Nc4cc([As](=O)(O)O)c(O)cc4O)cc3)cc2)c(O)cc1O
25.4

Below is a list of molecules. For each, state its recorded growth inhibition.
1. CC1CN1c1nc(N2CC2C)nc(N2CC2C)n1 (stereo not drawn)
2. [Se]c1nc(N2CCOCC2)ncc1-c1ccccc1

1: -11.1; 2: 9

---

Test: NCI Yeast Anticancer Drug Screen. Data for the sgs1 mgt1 strain (AID 161);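 note: 0% = growth of cultures given vehicle only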
Settings: S. cerevisiae sgs1 mgt1 strain, at 5.0 µM (retest, dose inferred, filed as 0.5), stronger effect = higher value
This is part of a sample that, as a whole, favours compounds with a hit. Of some 79,000 tested, about 15% had one in any assay.
TEST_READOUT: growth inhibition (%)
Answers are plain numbers, in %.

Batch lookup, growth inhibition per entry.
1. O=C1CCCC1Cl (centres undefined)
2. Nc1nc(N)c(-c2ccc(Cl)c(Cl)c2)c(COc2cccc(CNS(=O)(=O)c3cccc(S(=O)(=O)F)c3)c2)n1

1: -4; 2: -1

---

Assay: NCI Yeast Anticancer Drug Screen. Data for the mlh1 rad18 strain (AID 175)
Settings: S. cerevisiae mlh1 rad18 strain growth inhibition; at 50.0 µM; stronger effect = higher value
The panel holds about 79,000 compounds, 15% with a hit somewhere; the sample as a whole holds those more often. The source made the active and inactive calls. Rule as the data show it: active = growth inhibition above about 70%; inactive = the rest.
TEST_READOUT: growth inhibition

Check the records and state growth inhibition for CC([NH-])C(C)[NH-].CC([NH-])C(C)[NH-].CC([NH-])C(C)[NH-].[Cr+6] (centres undefined)
8.15% (inactive)

Each of the following entries comes with a recorded value; kindly state growth inhibition for each.
1. CC[n+]1c(/C=C/c2ccc(N(CCCl)CCCl)cc2)ccc2cc(Br)ccc21
2. CC(C)CCCC(C)C1CCC2C3CC=C4CC(OC(=O)CN5CC5)CCC4(C)C3CCC12C (centres undefined)
3. CCOC(=O)C1=C(OC(OCC)C(CC)[Se]c2ccccc2)CCC1 (centres undefined)
4. C[N+](C)(C)CC1CCCCCCCCCCC1=O (centres undefined)
5. Cc1cccc(C)c1[S][Pb][S]c1c(C)cccc1C
6. Cc1cccc(C=NCCOCCOCCN=Cc2cccc(C)c2O)c1O.[Ni]

["82.2% (active)", "3.2% (inactive)", "39.9% (inactive)", "-9.75% (inactive)", "-17.4% (inactive)", "-14.2% (inactive)"]

---

Assay: NCI Yeast Anticancer Drug Screen. Data for the sgs1 mgt1 strain (AID 161);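 note: 0% = growth of cultures given vehicle only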
Conditions: S. cerevisiae sgs1 mgt1 strain, at 50.0 µM (retest, dose inferred, filed as 5.0), stronger effect = higher value
About 79,000 compounds went through this panel and 15% of them were active in at least one assay; those are over-represented in the sample as a whole.
Would you kindly list growth inhibition for each of these compounds?
One number for each entry, in %.

Please list growth inhibition recorded for the compound C[N+](C)(C)CC1CCCC(C[N+](C)(C)C)C1O (centres undefined)
81

Tell us which growth inhibition value is on record for Cc1cccc(C)c1N=C(N)N[N+](=O)[O-]
98

Give me measured growth inhibition, please, for this compound: [O-][n+]1ccccc1S
99

Consider the additional compound presented here.
State its growth inhibition: CC/C(=C/c1ccc(OC)cc1OC)[N+](=O)[O-]
98
